Test system: T cell lines against natural epitope SSX-241-49
EXPERIMENT_DESCRIPTION: Cross-reactivity and functional avidity: IFN-gamma production by T cell lines raised against natural SSX-2 41-49;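 further: analogs presented ex vivo by competent APCs to T cells specific for the non-mutated epitope, scored by lowest activating concentration, peak cytokine effect and concentration at that peak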
Format: cell-based, HHD transgenic mice
SETTINGS: T cells raised to native peptide tested on analogs; footnote * and unit not given
VALUE_TYPE: Cross-reactivity and fct avidity (native to analogs)*

COMPOUND: CC[C@H](C)[C@H](NC(=O)[C@H](CCCCN)NC(=O)[C@H](CCC(=O)O)NC(=O)[C@H](CO)NC(=O)[C@@H](NC(=O)[C@@H](N)Cc1ccccc1)C(C)C)C(=O)N[C@@H](Cc1ccccc1)C(=O)N[C@@H](Cc1ccccc1)C(=O)N[C@H](C(=O)O)C(C)C [SSX2 41-49 (K41F, A42V, Y48F)]
QUALIFIER_SYMBOL: =
RECORDED_MEASUREMENT: 10

COMPOUND: CC[C@H](C)[C@H](NC(=O)[C@H](CCCCN)NC(=O)[C@H](CCC(=O)O)NC(=O)[C@H](CO)NC(=O)[C@@H](NC(=O)[C@@H](N)Cc1ccc(O)cc1)[C@@H](C)CC)C(=O)N[C@@H](Cc1ccccc1)C(=O)N[C@@H](Cc1ccc(O)cc1)C(=O)N[C@H](C(=O)O)C(C)C [SSX2 41-49 (K41Y, A42I)]
QUALIFIER_SYMBOL: =
RECORDED_MEASUREMENT: 1

COMPOUND: CCCC[C@H](NC(=O)[C@@H](N)CCCCN)C(=O)N[C@@H](CO)C(=O)N[C@@H](CCC(=O)O)C(=O)N[C@@H](CCCCN)C(=O)N[C@H](C(=O)N[C@@H](Cc1ccccc1)C(=O)N[C@@H](Cc1ccc(O)cc1)C(=O)N[C@H](C(=O)O)C(C)C)[C@@H](C)CC [SSX2 41-49 (A42(Nle)), KNleSEKIFYV]
QUALIFIER_SYMBOL: =
RECORDED_MEASUREMENT: 0.1

COMPOUND: CC[C@H](C)[C@H](NC(=O)[C@H](CCCCN)NC(=O)[C@H](CCC(=O)O)NC(=O)[C@H](CO)NC(=O)[C@@H](NC(=O)[C@@H](N)CCCCN)C(C)C)C(=O)N[C@@H](Cc1ccccc1)C(=O)N[C@@H](Cc1ccc(O)cc1)C(=O)N[C@H](C(=O)O)C(C)C [SSX2 41-49 (A42V)]
QUALIFIER_SYMBOL: =
RECORDED_MEASUREMENT: 0.03

COMPOUND: CC[C@H](C)[C@H](NC(=O)[C@H](CCCCN)NC(=O)[C@H](CCC(=O)O)NC(=O)[C@H](CO)NC(=O)[C@H](CC(C)C)NC(=O)[C@H](N)CCCCN)C(=O)N[C@@H](Cc1ccccc1)C(=O)N[C@@H](Cc1ccc(O)cc1)C(=O)N[C@H](C(=O)O)C(C)C [SSX2 41-49 (K41(D-Lys), A42L)]
QUALIFIER_SYMBOL: =
RECORDED_MEASUREMENT: 10

COMPOUND: CC[C@H](C)[C@H](NC(=O)[C@H](CCCCN)NC(=O)[C@H](CCC(=O)O)NC(=O)[C@H](CO)NC(=O)[C@H](Cc1ccc2ccccc2c1)NC(=O)[C@@H](N)CCCCN)C(=O)N[C@@H](Cc1ccccc1)C(=O)N[C@@H](Cc1ccc(O)cc1)C(=O)N[C@H](C(=O)O)C(C)C [SSX2 41-49 (A42(Nal-2)), KNal-2SEKIFYV]
QUALIFIER_SYMBOL: =
RECORDED_MEASUREMENT: 3

COMPOUND: CC[C@H](C)[C@H](NC(=O)[C@H](CCCCN)NC(=O)[C@@H](NC(=O)[C@H](CO)NC(=O)[C@@H](NC(=O)[C@@H](N)Cc1ccccc1)C(C)C)[C@@H](C)O)C(=O)N[C@@H](Cc1ccccc1)C(=O)N[C@@H](Cc1ccc(O)cc1)C(=O)N[C@H](C(=O)O)C(C)C [SSX2 41-49 (K41F, A42V, E44T)]
QUALIFIER_SYMBOL: >
RECORDED_MEASUREMENT: 10
